target: FLT3 (Homo sapiens, UniProt P36888); assay: Kinase inhibition activity test, isotope labeling (γ-33P-ATP): FLT3; type: biochemical; details: test compound at a concentration of 10 μM
Sequence (P36888 27-993): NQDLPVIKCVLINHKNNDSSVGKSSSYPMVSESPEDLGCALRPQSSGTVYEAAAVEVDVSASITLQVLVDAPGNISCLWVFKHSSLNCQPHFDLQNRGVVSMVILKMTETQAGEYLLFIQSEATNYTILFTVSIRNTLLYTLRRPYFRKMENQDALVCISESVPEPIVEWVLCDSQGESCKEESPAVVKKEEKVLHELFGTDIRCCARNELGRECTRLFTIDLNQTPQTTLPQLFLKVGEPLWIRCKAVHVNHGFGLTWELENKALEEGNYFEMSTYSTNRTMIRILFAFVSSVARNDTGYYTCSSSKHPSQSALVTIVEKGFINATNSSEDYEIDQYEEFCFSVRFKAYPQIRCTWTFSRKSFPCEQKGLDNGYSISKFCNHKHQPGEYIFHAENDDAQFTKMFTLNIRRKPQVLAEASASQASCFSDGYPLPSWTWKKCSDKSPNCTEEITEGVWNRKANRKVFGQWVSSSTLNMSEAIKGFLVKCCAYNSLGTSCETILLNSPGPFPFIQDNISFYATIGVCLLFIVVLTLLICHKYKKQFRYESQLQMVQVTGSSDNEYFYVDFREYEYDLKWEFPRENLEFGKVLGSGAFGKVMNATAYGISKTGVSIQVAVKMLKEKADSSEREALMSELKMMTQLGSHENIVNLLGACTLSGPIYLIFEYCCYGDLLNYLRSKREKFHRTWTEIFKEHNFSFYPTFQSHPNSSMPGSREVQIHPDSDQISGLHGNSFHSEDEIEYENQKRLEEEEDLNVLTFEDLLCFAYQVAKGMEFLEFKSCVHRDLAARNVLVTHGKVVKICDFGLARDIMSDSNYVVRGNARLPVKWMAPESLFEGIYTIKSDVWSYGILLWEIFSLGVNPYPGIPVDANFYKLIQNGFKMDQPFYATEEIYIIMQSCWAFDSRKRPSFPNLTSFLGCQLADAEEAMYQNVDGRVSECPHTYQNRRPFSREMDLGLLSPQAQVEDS
OBSERVATION_TYPE: Activity inhibition rate Flt3 (h) (%)
# value in %; strip the unit string

CC(C)(C)c1cc(NC(=O)Nc2ccc(Oc3ncnc4[nH]ncc34)cc2)on1 [4a-25]: 100
CC(C)(C)c1cc(NC(=O)Nc2ccc(Oc3ncnc4[nH]ncc34)cc2)n(-c2ccccc2)n1 [4a-24]: 100
CC(C)c1cccc(NC(=O)Nc2ccc(Oc3ncnc4[nH]ncc34)c(F)c2)c1 [4a-7]: 100
O=C(Nc1ccc(Oc2ncnc3[nH]ncc23)cc1)Nc1ccc(Cl)c(C(F)(F)F)c1 [4a-2]: 100
CC(C)(C)c1cc(NC(=O)Nc2ccc(Oc3ncnc4[nH]ncc34)c(F)c2)no1 [4a-31]: 100
O=C(Nc1ccc(Oc2ncnc3[nH]ncc23)c(F)c1)Nc1ccc(Cl)c(C(F)(F)F)c1 [4a-10]: 100
O=C(Nc1ccc(C(F)(F)F)cc1)Nc1ccc(Oc2ncnc3[nH]ncc23)c(F)c1 [4a-9]: 100
C[C@@H](NC(=O)Nc1ccc(Oc2ncnc3[nH]ncc23)cc1)c1ccccc1 [4a-19]: 73

Challenge: Give the measured Activity inhibition rate Flt3 (h) of C[C@H](NC(=O)Nc1ccc(Oc2ncnc3[nH]ncc23)cc1)c1ccccc1 [4a-18] .
Response given: 81

Challenge: Give the measured Activity inhibition rate Flt3 (h) of O=C(Nc1ccc(Oc2ncnc3[nH]ncc23)cc1)Nc1ccc(C(F)(F)F)cc1Cl [4a-13] .
Response given: 100

Challenge: Give the measured Activity inhibition rate Flt3 (h) of O=C(Nc1ccccc1)Nc1ccc(Oc2ncnc3[nH]ncc23)cc1 [4a-15] .
Response given: 100

Challenge: Give the measured Activity inhibition rate Flt3 (h) of O=C(Nc1ccc(Oc2ncnc3[nH]ncc23)cc1)Nc1cc(C(F)(F)F)cc(C(F)(F)F)c1 [4a-12] .
Response given: 100

The reported measurements were obtained from patent US9828375B2.
